Where do these numbers come from? They come from the supplement of paper PMC10567573.

Assay: protein stability index of a GFP-peptide fusion (GPS, HEK-293T) (PSI 1-6); higher = more stable;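 note: 24-mer peptide tiles fused after GFP, lentivirally expressed, FACS-sorted into six equal bins by GFP/DsRed ratio, decoded by Illumina sequencing, PSI is the read-weighted mean bin number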
Details: treatment: DMSO; c terminus: a fixed tail appended
Quantity Measured: protein stability index

IFDDNFIEERKQGLEQFINKVAGH [SNX3]
3.03
EKQELQELNDRFANFIEKVRFLEQ [PRPH]
3.08
RKDVCKSTHHGCEHICVNNGNSYI [MATN2]
3.01
VAKKTPTKRSTLIISGVSKVPIAQ [C2CD2L]
3.02
VMYRIGCLRDDVVFFIYLYQRWIY [CLPTM1]
2.93
TLTELRRTVQSLEIDLDSMRNLKA [KRT18]
3
